Measured values drawn from paper PMC8549260 for this set.

List of inhibition at 125 µg/mL values.
Molecular target: Yeast α-Glucosidase (Saccharomyces cerevisiae, UniProt P53341)
Sequence (P53341 whole entry): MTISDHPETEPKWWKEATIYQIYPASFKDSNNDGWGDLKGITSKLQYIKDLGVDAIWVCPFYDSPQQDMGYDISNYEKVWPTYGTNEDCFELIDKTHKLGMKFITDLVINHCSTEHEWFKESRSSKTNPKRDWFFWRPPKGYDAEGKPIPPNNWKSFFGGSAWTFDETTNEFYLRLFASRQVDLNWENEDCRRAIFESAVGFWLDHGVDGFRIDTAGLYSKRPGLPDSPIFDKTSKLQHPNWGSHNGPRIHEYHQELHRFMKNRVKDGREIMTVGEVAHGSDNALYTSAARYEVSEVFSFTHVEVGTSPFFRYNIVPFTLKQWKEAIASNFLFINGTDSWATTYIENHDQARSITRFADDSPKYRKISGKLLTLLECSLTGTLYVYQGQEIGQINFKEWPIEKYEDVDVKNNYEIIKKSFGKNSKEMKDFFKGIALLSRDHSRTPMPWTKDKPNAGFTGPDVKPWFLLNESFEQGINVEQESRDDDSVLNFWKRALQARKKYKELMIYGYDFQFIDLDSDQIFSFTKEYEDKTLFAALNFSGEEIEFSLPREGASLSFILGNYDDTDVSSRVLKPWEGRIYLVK
Experiment: biochemical
Conditions: read-out: α-Glucosidase Percent Inhibition (mean ± SEM)
Respond numerically; units are % and should not be typed.

Solved cases below.
>  <Compound>
C[C@H]1O[C@H](O[C@H]2[C@H](O)[C@@H](O)[C@@H](O[C@H]3[C@H](O)[C@@H](O)C(O)O[C@@H]3CO)O[C@@H]2CO)[C@H](O)[C@@H](O)[C@@H]1N[C@H]1C=C(CO)[C@@H](O)[C@H](O)[C@H]1O (stereo partly shown) [Acarbose, reference compound]

>  <inhibition at 125 µg/mL (%)>
77.6

$$$$
>  <Compound>
CC(C)=CC(=O)CC(C)c1ccc(C)cc1 (stereo not shown)

>  <inhibition at 125 µg/mL (%)>
44.4

$$$$
>  <Compound>
Cc1c(C)c2c(c(C)c1O)CCC(C)(CCCC(C)CCCC(C)CCCC(C)C)O2 (stereo not shown)

>  <inhibition at 125 µg/mL (%)>
70.6

$$$$

// next entry
Return reported inhibition at 125 µg/mL; argument: CCCC/C=C/C=O
66.9
